Entries and their limiting γ (0.1 b/s) values follow.
Method: Dynamic surface tension of aqueous solutions, maximum bubble pressure method
Assay type: physicochemical
Assay conditions: water, 25° C., 0.1 b/s
Entry rule: numbers only, all in Dyne/cm.

* CC(C)CCOC(=O)CC(O)C(=O)OCCC(C)C (racemic) [Example 6, Diisoamyl-DL-malate] | 35.6
* CCCCOC(=O)CC(O)C(=O)OCCCC (racemic) [Example 2, Dibutyl-DL-malate] | 35.8
* CCCCCOC(=O)CC(O)C(=O)OCCCCC (racemic) [Example 5, Dipentyl-DL-malate] | 36.8
* CC(C)COC(=O)CC(O)C(=O)OCC(C)C (racemic) [Example 3, Diisobutyl-DL-malate] | 33.5

Now examine the next entry.
Which limiting γ (0.1 b/s) value is on record for CCC(C)COC(=O)CC(O)C(=O)OCC(C)CC (racemic) [Example 7, Di(2-methylbutyl)-DL-malate] ? 37.8
